# Experimental System: FGFR3 (V555M) (Homo sapiens (Human), UniProt P22607, V555M)
# Sequence (P22607 23-806 V555M): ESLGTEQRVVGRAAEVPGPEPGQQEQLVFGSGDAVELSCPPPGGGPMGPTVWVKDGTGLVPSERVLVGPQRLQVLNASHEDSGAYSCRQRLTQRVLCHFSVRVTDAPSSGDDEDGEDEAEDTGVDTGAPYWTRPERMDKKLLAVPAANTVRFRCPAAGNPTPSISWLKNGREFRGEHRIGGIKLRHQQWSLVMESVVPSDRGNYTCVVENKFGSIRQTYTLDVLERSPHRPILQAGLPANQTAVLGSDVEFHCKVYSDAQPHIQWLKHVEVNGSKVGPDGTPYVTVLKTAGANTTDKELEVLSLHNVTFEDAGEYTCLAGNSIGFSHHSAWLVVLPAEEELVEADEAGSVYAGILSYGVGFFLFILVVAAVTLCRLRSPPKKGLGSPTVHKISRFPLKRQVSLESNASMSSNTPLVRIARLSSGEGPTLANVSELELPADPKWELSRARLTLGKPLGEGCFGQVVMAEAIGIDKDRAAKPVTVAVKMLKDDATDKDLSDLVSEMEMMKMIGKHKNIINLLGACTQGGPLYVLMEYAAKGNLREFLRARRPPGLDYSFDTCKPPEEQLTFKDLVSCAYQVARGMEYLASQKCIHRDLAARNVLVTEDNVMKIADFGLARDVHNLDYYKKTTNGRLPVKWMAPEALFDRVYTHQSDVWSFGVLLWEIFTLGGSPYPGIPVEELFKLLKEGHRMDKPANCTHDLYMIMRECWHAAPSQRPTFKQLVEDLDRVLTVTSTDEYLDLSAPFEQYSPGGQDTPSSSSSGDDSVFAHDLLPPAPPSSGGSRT
# Assay Text: Kinase assay, binding constants (Kd), kinase-tagged T7 phage, qPCR
# Measurement Parameters: V555M mutant
Kindly state Kd for each of the entries shown.

- Smiles: "C[C@@H](Oc1ccc2[nH]nc(-c3ccc(N4CCN(C(=O)N(C)C)C5(CC5)C4)nc3)c2c1)c1c(Cl)cncc1Cl"
  Kd: "20 to 100 nM"
- Smiles: "COC(=O)N1CCN(c2ccc(-c3n[nH]c4ccc(O[C@H](C)c5c(Cl)cncc5Cl)cc34)cn2)CC1"
  Kd: "1 to 20 nM"
- Smiles: "C[C@@H](Oc1ccc2[nH]nc(-c3ccc(N4CCN(C)CC4=O)nc3)c2c1)c1c(Cl)cncc1Cl"
  Kd: "1 to 20 nM"

I'm hoping you can list Kd for every compound here, please.
1. C[C@@H](Oc1ccc2[nH]nc(-c3ccc(N4CCC5(CCN(C)C5)CC4)nc3)c2c1)c1c(Cl)cncc1Cl
2. COc1cc2[nH]nc(-c3cnc(N4CC5(C4)CN(S(C)(=O)=O)C5)nc3)c2cc1O[C@H](C)c1c(Cl)cncc1Cl
3. C[C@@H](Oc1ccc2[nH]nc(-c3ccc(N4CCC5(CCCN5C)CC4)nc3)c2c1)c1c(Cl)cncc1Cl
4. C[C@@H](Oc1cc2c(-c3cnc(N4CC(C)(C)C4)c(CN(C)C)c3)n[nH]c2cc1Cl)c1c(Cl)cncc1Cl
5. Cc1cnnc(C)c1[C@@H](C)Oc1ccc2[nH]nc(-c3cnc(N4CC(O)C4)c(C#N)c3)c2c1
6. COc1cc(-c2n[nH]c3ccc(O[C@H](C)c4c(C)cnnc4C)cc23)cnc1N1CCCC1
7. CCS(=O)(=O)N1CC2(CN(c3ccc(-c4n[nH]c5ccc(O[C@H](C)c6c(Cl)cnc(C)c6Cl)cc45)cn3)C2)C1
8. C[C@@H](Oc1ccc2[nH]nc(-c3cnc(N4CCC(O)CC4)c(C#N)c3)c2c1)c1c(Cl)cncc1Cl

Solution:
1 to 20 nM
1 to 20 nM
1 to 20 nM
> 300 nM
1 to 20 nM
100 to 300 nM
1 to 20 nM
1 to 20 nM

###

# Experimental System: UniProtKB P22455
# Sequence (P22455 22-802): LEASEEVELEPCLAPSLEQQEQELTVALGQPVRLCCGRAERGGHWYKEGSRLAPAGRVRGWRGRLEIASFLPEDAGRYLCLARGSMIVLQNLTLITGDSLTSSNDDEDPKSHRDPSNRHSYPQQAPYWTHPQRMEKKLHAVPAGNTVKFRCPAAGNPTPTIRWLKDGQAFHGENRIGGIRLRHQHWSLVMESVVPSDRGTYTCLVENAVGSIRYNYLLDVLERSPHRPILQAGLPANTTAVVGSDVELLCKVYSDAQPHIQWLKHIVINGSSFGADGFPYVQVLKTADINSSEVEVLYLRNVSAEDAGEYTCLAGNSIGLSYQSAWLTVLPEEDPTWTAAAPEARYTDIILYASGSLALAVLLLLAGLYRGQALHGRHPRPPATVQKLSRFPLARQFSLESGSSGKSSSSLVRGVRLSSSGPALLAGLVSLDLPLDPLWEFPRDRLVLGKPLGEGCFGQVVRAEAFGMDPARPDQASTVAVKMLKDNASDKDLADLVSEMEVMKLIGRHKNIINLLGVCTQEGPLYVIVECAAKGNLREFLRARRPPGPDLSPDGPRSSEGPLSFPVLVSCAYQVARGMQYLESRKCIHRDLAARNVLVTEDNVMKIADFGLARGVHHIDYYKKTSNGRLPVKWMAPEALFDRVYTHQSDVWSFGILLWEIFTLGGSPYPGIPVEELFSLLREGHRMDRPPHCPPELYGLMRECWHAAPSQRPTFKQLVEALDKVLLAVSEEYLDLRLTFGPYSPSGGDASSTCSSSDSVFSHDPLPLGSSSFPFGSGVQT
# Assay Text: Kinase assay, binding constants (Kd), kinase-tagged T7 phage, qPCR
Readout Kind: Kd

- Compound: "C[C@@H](Oc1ccc2[nH]nc(-c3cnc(N4CC[C@@H](O)C4)c(C#N)c3)c2c1)c1c(Cl)cncc1Cl [Example 297]"
  Kd: "1 to 20 nM"
- Compound: "CC(C)N1CC2(CN(c3ccc(-c4n[nH]c5ccc(O[C@H](C)c6c(Cl)cncc6Cl)cc45)cn3)C2)C1 [Example 31]"
  Kd: "1 to 20 nM"
- Compound: "C[C@@H](Oc1ccc2[nH]nc(-c3cnn(C4CCN(CCO)CC4)c3)c2c1)c1c(Cl)cncc1Cl [Example 79]"
  Kd: "1 to 20 nM"

I'm hoping you can list Kd for every compound here, please.
1. COc1cc2[nH]nc(-c3cnc(N4CC(O)C4)c(C#N)c3)c2cc1O[C@H](C)c1c(C)cnnc1C [Example 320]
2. Cc1cnnc(C)c1[C@H](C)Oc1ccc2[nH]nc(-c3cnc(N4CCC5(CC4)CCS(=O)(=O)C5)nc3)c2c1 [Example 154]
3. COc1cc(-c2n[nH]c3ccc(O[C@H](C)c4c(C)cnnc4C)cc23)cnc1N1CCN2C(=O)NCC2C1 (stereo partly shown) [Example 328]
4. C[C@@H](Oc1ccc2[nH]nc(-c3cnc(N4CC[C@@H](C(C)(C)O)C4)c(C#N)c3)c2c1)c1c(Cl)cncc1Cl [Example 294]

Solution:
1: 1 to 20 nM; 2: 100 to 300 nM; 3: 1 to 20 nM; 4: 20 to 100 nM
